The entries below come with measured CC90 values attached.
- System: DU-145
- assay-details: Cytotoxicity against human DU145 cells after 48 hrs by MTS assay
- Type: functional
- condition: DU-145, 48 h
measured-endpoint: CC90 (µM)

>>> measurement("CCCCCCCCCCCCCCCCOCCCO[C@@H]1O[C@H](CN)[C@@H](O)[C@H](O)[C@H]1N")
8.5
>>> measurement("CCCCCCCCCCCCCCCCOC[C@H](CO[C@@H]1O[C@H](CO)[C@@H](O)[C@H](O)[C@H]1N)NC(=O)OC")
19
>>> measurement("CCCCCCCCCCCCCCCCOC[C@@H](N)CO[C@@H]1O[C@H](CO)[C@@H](O)[C@H](O)[C@H]1N")
9
>>> measurement("CCCCCCCCCCCCCCCCOC[C@H](CN=[N+]=[N-])O[C@@H]1O[C@H](CO)[C@@H](O)[C@H](O)[C@H]1N")
18
>>> measurement("CCCCCCCCCCCCCCCCOC[C@H](CN)O[C@@H]1O[C@H](CO)[C@@H](O)[C@H](O)[C@H]1N")
25
>>> measurement("CCCCCCCCCCCCCCCCOC[C@@H](CO[C@@H]1O[C@H](CN)[C@@H](O)[C@H](O)[C@H]1N)OC")
8.5
>>> measurement("CCCCCCCCCCCCCCCCOC[C@@H](CO[C@@H]1O[C@H](CO)[C@@H](O)[C@H](O)[C@H]1N)OC")
15
>>> measurement("CCCCCCCCCCCCCCCCOC[C@@H](CO[C@H]1O[C@H](CN)[C@@H](O)[C@H](O)[C@H]1N)OC")
7.4

----------
- Tested on: JIMT-1
- assay-details: Cytotoxicity against human JIMT1 cells after 48 hrs by MTS assay
- Format: functional
- condition: JIMT-1, 48 h
Quick rule for you: CC50 under 6 µM gets y, anything else gets n.

>>> class("CCCCCCCCCCCCCCCCOC[C@H](CO[C@@H]1O[C@H](CO)[C@@H](O)[C@H](O)[C@H]1N)NC(=O)OC")
"n"
>>> class("CCCCCCCCCCCCCCCCOC[C@H](CN=[N+]=[N-])O[C@@H]1O[C@H](CO)[C@@H](O)[C@H](O)[C@H]1N")
"n"
>>> class("CCCCCCCCCCCCCCCCOCCCO[C@@H]1O[C@H](CN)[C@@H](O)[C@H](O)[C@H]1N")
"y"
>>> class("CCCCCCCCCCCCCCCCOC[C@H](CN)O[C@@H]1O[C@H](CO)[C@@H](O)[C@H](O)[C@H]1N")
"n"
>>> class("CCCCCCCCCCCCCCCCOC[C@@H](CO[C@@H]1O[C@H](CN)[C@@H](O)[C@H](O)[C@H]1N)OC")
"y"
>>> class("CCCCCCCCCCCCCCCCOC[C@@H](CO[C@@H]1O[C@H](CO)[C@@H](O)[C@H](O)[C@H]1N)OC")
"n"
>>> class("CCCCCCCCCCCCCCCCOC[C@@H](N)CO[C@@H]1O[C@H](CO)[C@@H](O)[C@H](O)[C@H]1N")
"y"
>>> class("CCCCCCCCCCCCCCCCOC[C@@H](CO[C@H]1O[C@H](CN)[C@@H](O)[C@H](O)[C@H]1N)OC")
"y"

----------
- Tested on: MDA-MB-231
- assay-details: Cytotoxicity against human MDA-MB-231 cells after 48 hrs by MTS assay
- Type: functional
- condition: MDA-MB-231, 48 h
Quick rule for you: CC50 under 6 µM gets satisfied, anything else gets not satisfied.

>>> class("CCCCCCCCCCCCCCCCOC[C@H](CO[C@@H]1O[C@H](CO)[C@@H](O)[C@H](O)[C@H]1N)NC(=O)CCCCCCCCCCCCCCC")
"not satisfied"
>>> class("CC[C@@H](C(=O)[C@@H](C)[C@@H](O)[C@H](C)[C@@H]1O[C@@H]([C@@H](CC)C(=O)O)CC[C@@H]1C)[C@H]1O[C@]2(C=C[C@@H](O)[C@]3(CC[C@@](C)([C@H]4CC[C@](O)(CC)[C@H](C)O4)O3)O2)[C@H](C)C[C@@H]1C")
"not satisfied"
>>> class("CCCCCCCCCCCCCCCCOC[C@@H](CO[C@@H]1O[C@H](CN)[C@@H](O)[C@H](O)[C@H]1N)OC")
"satisfied"
>>> class("CCCCCCCCCCCCCCCCOCCCO[C@@H]1O[C@H](CN)[C@@H](O)[C@H](O)[C@H]1N")
"satisfied"
>>> class("CCCCCCCCCCCCCCCCOC[C@H](CO[C@@H]1O[C@H](CO)[C@@H](O)[C@H](O)[C@H]1N)NC(=O)OC")
"not satisfied"
>>> class("CCCCCCCCCCCCCCCCOC[C@H](CN=[N+]=[N-])O[C@@H]1O[C@H](CO)[C@@H](O)[C@H](O)[C@H]1N")
"not satisfied"
>>> class("O=C(O)CCCc1ccc(N(CCCl)CCCl)cc1")
"not satisfied"
>>> class("CCCCCCCCCCCCCCCCOC[C@H](CN)O[C@@H]1O[C@H](CO)[C@@H](O)[C@H](O)[C@H]1N")
"not satisfied"

----------
- System: MDA-MB-231
- assay-details: Cytotoxicity against human MDA-MB-231 cells after 48 hrs by MTS assay
- Format: functional
- condition: MDA-MB-231, 48 h
measured-endpoint: CC50 (µM)

>>> measurement("CCCCCCCCCCCCCCCCOC[C@@H](CO[C@H]1O[C@H](CN)[C@@H](O)[C@H](O)[C@H]1N)OC")
3
>>> measurement("CCCCCCCCCCCCCCCCOC[C@@H](CO[C@@H]1O[C@H](CN)[C@@H](O)[C@H](O)[C@H]1N1C(=O)c2ccccc2C1=O)OC")
20
>>> measurement("CCCCCCCCCCCCCCCCOC[C@@H](N)CO[C@@H]1O[C@H](CO)[C@@H](O)[C@H](O)[C@H]1N")
6

----------
- Tested on: JIMT-1
- assay-details: Cytotoxicity against human JIMT1 cells after 48 hrs by MTS assay
- Format: functional
- condition: JIMT-1, 48 h
The entries below come with measured CC90 values attached.
measured-endpoint: CC90 (µM)

>>> measurement("CCCCCCCCCCCCCCCCOC[C@@H](CO[C@@H]1O[C@H](CO)[C@@H](O)[C@H](O)[C@H]1N)OC")
16
>>> measurement("CCCCCCCCCCCCCCCCOC[C@@H](CO[C@@H]1O[C@H](CN)[C@@H](O)[C@H](O)[C@H]1N)OC")
6.5
>>> measurement("CCCCCCCCCCCCCCCCOC[C@@H](CO[C@H]1O[C@H](CN)[C@@H](O)[C@H](O)[C@H]1N)OC")
4.9
>>> measurement("CCCCCCCCCCCCCCCCOC[C@H](CN)O[C@@H]1O[C@H](CO)[C@@H](O)[C@H](O)[C@H]1N")
19
>>> measurement("CCCCCCCCCCCCCCCCOC[C@H](CO[C@@H]1O[C@H](CO)[C@@H](O)[C@H](O)[C@H]1N)NC(=O)OC")
15
>>> measurement("CCCCCCCCCCCCCCCCOC[C@@H](N)CO[C@@H]1O[C@H](CO)[C@@H](O)[C@H](O)[C@H]1N")
7.5
>>> measurement("CCCCCCCCCCCCCCCCOC[C@H](CN=[N+]=[N-])O[C@@H]1O[C@H](CO)[C@@H](O)[C@H](O)[C@H]1N")
13.5
>>> measurement("CCCCCCCCCCCCCCCCOCCCO[C@@H]1O[C@H](CN)[C@@H](O)[C@H](O)[C@H]1N")
6
